Hey, just so you know, these numbers are from patent US20260062463A1.

Target: T1, AAV5 (adeno-associated virus 5, Assembled 60-mer capsid of VP1/VP2/VP3 (nested products of one cap gene), amine-coupled to a CM5 chip; the letters give one VP1 subunit only.)
T1 construct: also called adeno-associated virus serotype 5
Experiment: SPR, AAV amine-coupled to CM5 chip
observedProperty: koff (s⁻¹)
One number for each entry, in s⁻¹.

**Q:** Using the record for A4-C1 (VHH) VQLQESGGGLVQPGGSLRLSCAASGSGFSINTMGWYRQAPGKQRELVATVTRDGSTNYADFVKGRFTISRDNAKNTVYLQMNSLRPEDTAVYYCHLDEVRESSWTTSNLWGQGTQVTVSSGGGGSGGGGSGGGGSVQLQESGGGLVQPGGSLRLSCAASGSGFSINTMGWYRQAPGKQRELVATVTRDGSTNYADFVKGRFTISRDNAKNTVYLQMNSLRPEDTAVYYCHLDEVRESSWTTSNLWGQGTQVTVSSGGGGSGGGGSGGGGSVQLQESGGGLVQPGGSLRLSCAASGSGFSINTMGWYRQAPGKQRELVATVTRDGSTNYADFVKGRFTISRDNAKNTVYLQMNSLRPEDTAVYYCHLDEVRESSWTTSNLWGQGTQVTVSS , report its koff.
**A:** 0.00138
